- tested.on: KAT2A (Homo sapiens (Human))
- Sequence (Q92830 whole entry): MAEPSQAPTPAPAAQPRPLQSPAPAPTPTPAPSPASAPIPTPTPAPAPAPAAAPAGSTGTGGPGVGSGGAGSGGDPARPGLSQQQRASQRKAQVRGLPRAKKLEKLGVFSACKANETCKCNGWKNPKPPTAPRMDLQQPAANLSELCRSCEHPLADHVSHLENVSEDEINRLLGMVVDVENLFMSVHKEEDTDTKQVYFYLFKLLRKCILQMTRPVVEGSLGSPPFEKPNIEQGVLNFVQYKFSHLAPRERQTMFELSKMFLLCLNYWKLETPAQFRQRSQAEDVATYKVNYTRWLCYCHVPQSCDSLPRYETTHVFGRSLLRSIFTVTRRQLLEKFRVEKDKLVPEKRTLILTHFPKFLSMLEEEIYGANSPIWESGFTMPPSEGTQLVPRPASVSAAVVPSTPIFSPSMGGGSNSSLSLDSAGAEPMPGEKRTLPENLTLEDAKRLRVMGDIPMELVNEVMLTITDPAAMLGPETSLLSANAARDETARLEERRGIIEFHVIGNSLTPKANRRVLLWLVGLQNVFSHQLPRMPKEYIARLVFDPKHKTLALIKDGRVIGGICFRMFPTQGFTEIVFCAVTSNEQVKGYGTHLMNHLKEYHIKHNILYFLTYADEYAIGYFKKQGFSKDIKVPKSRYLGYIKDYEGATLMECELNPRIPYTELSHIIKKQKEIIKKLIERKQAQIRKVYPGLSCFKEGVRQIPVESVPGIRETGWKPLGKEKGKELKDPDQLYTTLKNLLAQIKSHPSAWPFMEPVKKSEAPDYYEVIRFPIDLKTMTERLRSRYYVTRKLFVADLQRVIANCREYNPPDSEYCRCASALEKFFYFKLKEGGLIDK
- test.protocol: KAT2A acetyltransferase biochemical assay (RapidFire mass spectrometry, AcCoA to CoA)
- assay.context: read-out: KAT2A Ki at 1 μM AcCoA, 5 μM H3 1-21 peptide, 0.5 nM KAT2A, 90-minute reaction
Consider the following partition of reported Ki into named classes: bin A (below 0.4 nM), bin B (0.4 nM to below 4 nM), bin C (4 nM or more)

Completed entries (count: 5):
compound	label.value
CCS(=O)(=O)NC(=O)Cc1ccc(O[C@@H]2CC[C@@H](NC(=O)[C@@]3(F)CNCC4(CCC4)C3)C2)c(-c2cccc(F)c2C2CCC2)c1 (single isomer, unassigned) [Example C59]	bin C
CN1C[C@](F)(C(=O)N[C@@H]2CC[C@@H](Oc3ccc(C(C)(C)C(=O)NS(C)(=O)=O)cc3-c3cccc(F)c3C3CCC3)C2)CC1(C)C (single isomer, unassigned) [Example B7]	bin B
CCc1c(F)cccc1-c1cc(C(C)(C)C(=O)NS(=O)(=O)C(C)C)ccc1O[C@@H]1CC[C@@H](NC(=O)[C@@]2(F)CNCC(C)(C)C2)C1 (single isomer, unassigned) [Example C45]	bin A
CN1CC(C)(C)C[C@H]1C(=O)N[C@H]1C[C@H](Oc2cccc(CC(=O)O)c2-c2cccc(F)c2C2CCC2)C[C@H]1O (atropisomer, axis not shown) [Example K5]	bin C
CC(C)c1c(F)cccc1-c1cc(C(C)(C)C(=O)O)ccc1O[C@@H]1CC[C@@H](NC(=O)[C@@]2(F)CNC3(CCC3)C2)C1 (single isomer, unassigned) [Example A21]	bin C

Query: Dear colleague, I would appreciate it if you could identify the bin for CC1(C)C[C@](F)(C(=O)N[C@@H]2CC[C@@H](Oc3ccc(C(C)(C)C(=O)O)cc3-c3cccc(F)c3C3CCC3)C2)CN1 (single isomer, unassigned) [Example A4] and reply at your convenience.
Result: bin C

Query: Dear colleague, I would appreciate it if you could identify the bin for CCc1c(F)cccc1-c1cc(C(=O)O)ccc1O[C@@H]1CC[C@@H](NC(=O)[C@@]2(F)CNC3(CCCC3)C2)C1 (single isomer, unassigned) [Example A43] and reply at your convenience.
Result: bin C

* * *

- tested.on: UniProtKB Q92830
- test.protocol: KAT2A acetyltransferase biochemical assay (RapidFire mass spectrometry, AcCoA to CoA)
- assay.context: read-out: KAT2A Ki at 1 μM AcCoA, 5 μM H3 1-21 peptide, 0.5 nM KAT2A, 90-minute reaction
measurement.kind: Ki (nM)
Report the figure in nM without appending any unit label.

As a guide, the following entries are already answered.
molecule	assay.result
CC(C)(C(=O)NS(=O)(=O)N1CCC1)c1ccc(O[C@@H]2CC[C@@H](NC(=O)[C@@]3(F)CNC4(CCC4)C3)C2)c(-c2cccc(F)c2C2CCC2)c1	0.05
CC1(C)CNC[C@](F)(C(=O)N[C@@H]2CC[C@@H](Oc3ccc(CC(=O)NS(=O)(=O)C4(C)CC4)cc3-c3cccc(F)c3C3CCC3)C2)C1 (single isomer, unassigned) [Example C79]	0.06
CC(C)S(=O)(=O)NC(=O)Cc1ccc(O[C@@H]2CC[C@@H](NC(=O)[C@@]3(F)CNCC(C)(C)C3)C2)c(-c2cccc(F)c2C2CCC2)c1 (single isomer, unassigned) [Example C76]	46

Now for the molecule whose Ki we want.
Ki of CCc1c(F)cccc1-c1cc(CC(=O)NS(=O)(=O)C(C)C)ccc1O[C@@H]1CC[C@@H](NC(=O)[C@@]2(F)CNC3(CCCC3)C2)C1 (single isomer, unassigned) [Example C72] , assay on UniProtKB Q92830, is 45.4
